Assign IC50 to each entry below.
- TARGET_ENTITY: human TRPV1 (hTRPV1) (Homo sapiens, UniProt Q8NER1)
- Sequence (Q8NER1 whole entry): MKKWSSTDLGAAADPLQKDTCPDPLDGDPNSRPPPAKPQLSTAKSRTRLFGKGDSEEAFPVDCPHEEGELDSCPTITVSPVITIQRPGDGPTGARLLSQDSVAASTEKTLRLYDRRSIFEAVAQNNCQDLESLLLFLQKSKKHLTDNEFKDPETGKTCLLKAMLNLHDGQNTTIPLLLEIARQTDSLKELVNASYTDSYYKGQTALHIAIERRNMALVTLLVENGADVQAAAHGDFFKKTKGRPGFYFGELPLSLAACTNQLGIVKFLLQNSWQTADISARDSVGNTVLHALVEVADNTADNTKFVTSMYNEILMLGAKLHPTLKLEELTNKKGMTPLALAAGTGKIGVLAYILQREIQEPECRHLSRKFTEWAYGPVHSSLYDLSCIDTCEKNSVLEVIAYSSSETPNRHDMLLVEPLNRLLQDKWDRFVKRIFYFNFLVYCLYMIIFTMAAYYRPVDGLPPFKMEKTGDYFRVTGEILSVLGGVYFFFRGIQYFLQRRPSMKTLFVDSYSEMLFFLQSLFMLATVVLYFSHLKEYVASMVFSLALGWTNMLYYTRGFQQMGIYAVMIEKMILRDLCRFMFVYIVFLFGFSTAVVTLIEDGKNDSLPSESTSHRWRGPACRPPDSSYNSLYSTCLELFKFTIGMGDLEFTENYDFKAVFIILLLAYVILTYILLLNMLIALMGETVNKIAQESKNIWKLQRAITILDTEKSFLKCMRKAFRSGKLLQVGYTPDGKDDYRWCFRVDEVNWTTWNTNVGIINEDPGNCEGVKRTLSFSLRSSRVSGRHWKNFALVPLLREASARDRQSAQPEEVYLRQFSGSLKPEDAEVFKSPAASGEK
- ASSAY_PROTOCOL: Ca2+ influx assay, antagonism against capsaicin in hTRPV1-HEK recombinant cells
- CONDITION_LABEL: capsaicin 10 nM as activator, Fluo4-NW fluorescence, read-out: hTRPV1 IC50 [cap]

Guide cases for IC50, answers given:
CC(C)(C)COc1nc(C(F)(F)F)ccc1/C=C/C(=O)Nc1cccc2[nH]c(=O)[nH]c12: 202 nM
O=C(/C=C/c1ccc(C(F)(F)F)nc1OCC1CC1)Nc1cccc2[nH]c(=O)[nH]c12: 13.7 nM
O=C(/C=C/c1ccc(C(F)(F)F)nc1OCC1CCCC1)Nc1cccc2[nH]c(=O)[nH]c12: 54.4 nM

Then this compound:
Name the recorded IC50 for O=C(/C=C/c1ccc(C(F)F)nc1OCC1CC1)Nc1cccc2[nH]c(=O)[nH]c12 .
26.1 nM

----------
- TARGET_ENTITY: human TRPV1 (hTRPV1) (Homo sapiens)
- Construct: host or cells: HEK (PrecisION hTRPV1-HEK recombinant cell line)
- ASSAY_PROTOCOL: Evaluation of human pH inhibitory activity in hTRPV1-HEK recombinant cells
- Type: cell-based
- CONDITION_LABEL: inhibition of activation at final pH 6.0, test substance 3 μM
OBSERVED_PROPERTY: hTRPV1 pH (%, 3 μM) (%)
Answers are plain numbers, in %.

For orientation, consider the following solved cases.
O=C(/C=C/c1sc(C2CC2)nc1-c1cccc(Cl)c1)Nc1cccc2[nH]c(=O)[nH]c12 [Example 56]: 68.23
CC(C)CSc1nc(C(F)(F)F)ccc1/C=C/C(=O)Nc1cccc2[nH]c(=O)[nH]c12 [Example 27]: 78.45
O=C(/C=C/c1ccc(C(F)(F)F)nc1OCC1CCC1)Nc1cccc2[nH]c(=O)[nH]c12 [Example 25]: 89.76

Go through the list and state hTRPV1 pH (%, 3 μM) for each entry.
1. O=C(/C=C/c1ccc(C2CC2)cc1OCC1CC1)Nc1cccc2[nH]c(=O)[nH]c12 [Example 46]
2. O=C(/C=C/c1ccc(C(F)(F)F)nc1OCC(F)(F)F)Nc1cccc2[nH]c(=O)[nH]c12 [Example 14]
3. O=C(/C=C/c1ccc(C(F)F)nc1OCC1CC1)Nc1cccc2[nH]c(=O)[nH]c12 [Example 21]
4. O=C(/C=C/c1cc(C(F)(F)F)nn1-c1cccc(Cl)c1)Nc1cccc2[nH]c(=O)[nH]c12 [Example 47]

57.38
94.03
79.89
37.26

# batch: return hTRPV1 pH (%, 3 μM) for each of the 5 compounds below
1. Cc1cccc(-n2nc(C(F)(F)F)cc2/C=C/C(=O)Nc2cccc3[nH]c(=O)[nH]c23)c1 [Example 48]
2. O=C(/C=C/c1ccc(C(F)(F)F)nc1-c1cccs1)Nc1cccc2[nH]c(=O)[nH]c12 [Example 35]
3. O=C(/C=C/c1ccc(C(F)(F)F)nc1OCC1CCCC1)Nc1cccc2[nH]c(=O)[nH]c12 [Example 26]
4. O=C(/C=C/c1ccc(C(F)(F)F)nc1-c1cccc(Cl)c1)Nc1cccc2[nH]c(=O)[nH]c12 [Example 31]
5. O=C(/C=C/c1ccc(C(F)(F)F)nc1N1CCCC1)Nc1cccc2[nH]c(=O)[nH]c12 [Example 3]

1: 29.43; 2: 95.87; 3: 95.11; 4: 82.34; 5: 52.56
